# assayed-system: κ-opioid receptor (Homo sapiens)
# Sequence (P41145 whole entry): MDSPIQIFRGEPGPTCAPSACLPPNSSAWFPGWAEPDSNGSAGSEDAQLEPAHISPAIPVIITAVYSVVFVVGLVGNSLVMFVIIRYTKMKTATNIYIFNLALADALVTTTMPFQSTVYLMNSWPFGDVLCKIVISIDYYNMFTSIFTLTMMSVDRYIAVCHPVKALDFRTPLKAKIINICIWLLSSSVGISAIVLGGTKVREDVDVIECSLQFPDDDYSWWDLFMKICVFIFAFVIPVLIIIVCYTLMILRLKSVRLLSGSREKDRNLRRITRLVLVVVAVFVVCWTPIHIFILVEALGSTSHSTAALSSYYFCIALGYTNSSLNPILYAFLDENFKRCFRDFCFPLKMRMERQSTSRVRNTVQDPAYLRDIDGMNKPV
# assay-name: κ-opioid receptor radioligand binding assay ([3H]-U69,593)
# Parameters: expressed in transfected cells; host or cells: HEK-293
# conditions: HEK-293 or CHO cells; read-out: Ki (nM) Opioid Receptor κ
reported-metric: Ki
The reply must contain the numeric value and, after it, the unit.

C[C@H]1[C@H]2Cc3ccc(O)cc3[C@]1(CCCC(N)=O)CCN2CC1CCC1	0.12 nM
C[C@H]1[C@H]2Cc3ccc(O)cc3[C@]1(CCCC(=O)N(C)C)CCN2CC1CCC1	0.22 nM
COC(=O)[C@@H](NCC[C@@]12CCN(CC3CC3)[C@@H](Cc3ccc(OC)cc31)[C@H]2C)C(C)C	8990 nM
COc1ccc2c(c1)[C@]1(CCN[C@@H](C)C(=O)O)CCN(CC3CC3)[C@H](C2)[C@@H]1C	248 nM
C[C@H]1[C@H]2Cc3ccc(O)cc3[C@]1(CCNC(=O)[C@@H]1CCCCN1)CCN2CC1CC1	0.17 nM
COc1ccc2c(c1)[C@]1(CCNC(=O)CN)CCN(CC3CC3)[C@H](C2)[C@@H]1C	1.04 nM
C[C@H]1[C@H]2Cc3ccc(O)cc3[C@]1(CCCCN[C@@H](Cc1ccccc1)C(N)=O)CCN2CC1CC1	0.048 nM
COC(=O)c1ccc(CC(=O)NCC[C@]23CCN(CC4CC4)[C@H](Cc4ccc(OC)cc42)[C@@H]3C)cc1	6.18 nM

For every record below, what is its Ki?
1. COc1ccc2c(c1)[C@]1(CCOCc3ccccc3)CCN(CC3CC3)[C@H](C2)[C@@H]1C
2. COC(=O)[C@H](C)NCC[C@]12CCN(CC3CC3)[C@H](Cc3ccc(OC)cc31)[C@@H]2C
3. COc1ccc2c(c1)[C@]1(CCNCC(=O)O)CCN(CC3CC3)[C@H](C2)[C@@H]1C
4. C[C@H]1[C@H]2Cc3ccc(O)cc3[C@]1(CCN1CCS(=O)(=O)CC1)CCN2C
5. COC(=O)[C@H](Cc1ccccc1)NCCCC[C@]12CCN(CC3CC3)[C@H](Cc3ccc(O)cc31)[C@@H]2C
6. C[C@H]1[C@H]2Cc3ccc(O)cc3[C@]1(CCNC(=O)c1ccc(C(=O)O)cc1)CCN2CC1CC1

Completion:
1: 0.16 nM; 2: 0.78 nM; 3: 133 nM; 4: 77 nM; 5: 0.054 nM; 6: 35 nM

Prompt: Data request, read-out Ki, for COc1ccc2c(c1)[C@@]1(CCOCc3ccccc3)CCN(CC3CC3)[C@@H](C2)[C@H]1C
Completion: 118 nM
